Assay: In vitro diffusion of IFN-α into human skin, flow-through diffusion cells, antiviral bioassay of skin homogenate
Settings: Biphasic lipid vesicles + acylated amino acid + IFN-α, 24 hours, n = 4
Measured Average Amount of IFN-α in skin accompanies every entry in the list below.
measurementLabel: Average Amount of IFN-α in skin

molecule | result
CCCCCCCCCCCCCCCCCCCC(=O)N[C@@H](CO)C(=O)O [PDM3, N-eicosanoyl-L-serine] | 2022 ± 1046 U/mg protein
CCCCCCCCCCCC(=O)NCCCC[C@H](N)C(=O)O [MLL, Lauroyl lysine] | 250 ± 112 U/mg protein
CCCCCCCC(=O)N[C@H](C(=O)OC)[C@@H](C)O [PDM1, N-capryloyl-L-threonine methyl ester] | 290 ± 172 U/mg protein
CCCCCCCCCCCCCCCC(=O)N[C@@H](CCCCNC(=O)CCCCCCCCCCC)C(=O)OC [PDM17] | 540 ± 239 U/mg protein
CCCCCCCCCCCCCCCCCCCC(=O)N[C@H](C(=O)O)[C@@H](C)O [PDM4, N-eicosanoyl threonine] | 1707 ± 538 U/mg protein
CCCCCCCCCCCC(=O)NCCCC[C@H](NC(=O)CCCCCCCCCCC)C(=O)OC [PDM18] | 84 ± 52 U/mg protein
